Tested on: Bovine cardiac myofibrils
Assay: In vitro model of dose-dependent myofibril ATPase modulation (AC1.4, pyruvate kinase/lactate dehydrogenase-coupled ATPase assay at pCa25)
Assay type: biochemical
Conditions: concentration at which ATPase activity was 1.4-fold higher than the bottom of the dose curve, mean of a minimum of two independent tests
Recorded endpoint: AC1.4 (µM)
// return numeric value only (unit: µM, not printed)

Molecule | Target entity | AC1.4 / µM
N#CC1CN(S(=O)(=O)c2cccc(C(=O)N3CCc4ccccc4C3C(=O)NCc3ccc(C(F)(F)F)cc3)c2)C1 (stereo not drawn) | Bovine cardiac myofibrils | 0.8782
C[C@@H](NC(=O)[C@H]1CCCN1C(=O)c1cccc(S(C)(=O)=O)c1)c1cc(F)c(Cl)cc1F | Bovine cardiac myofibrils | 3.919
CS(=O)(=O)c1ccc(C(=O)N2CCC[C@@H]2C(=O)N[C@@H](c2ccc(C(F)(F)F)cc2F)C2CC2)cn1 | Bovine cardiac myofibrils | 2.1945

### Prompt Form entry - test system: Bovine cardiac myofibrils; read-out: AC1.4; molecule: `CS(=O)(=O)c1cccc(C(=O)N2C(=O)OC[C@@H]2C(=O)N[C@@H](c2ccc(C(F)(F)F)cc2F)C2CC2)c1`
### Response 2.813

### Prompt Now consider `CS(=O)(=O)c1cc(C(=O)N2C[C@@H](F)C[C@@H]2C(=O)N[C@@H](c2cc(F)c(C(F)(F)F)cc2F)C2CC2)ccn1` and answer again.
### Response 1.528

### Prompt O=C(NCc1ccc(C(F)(F)F)cc1)[C@H]1CCCN1C(=O)[C@H]1CCCN(S(=O)(=O)N2CCC2c2ccccc2)C1 (stereo partly drawn) ?
### Response 0.9511

### Prompt Same question for `N#CC1CN(S(=O)(=O)c2cccc(C(=O)N3CCC[C@@H]3C(=O)NCc3ccc(C(F)F)cc3)c2)C1` please.
### Response 0.1574

### Prompt Likewise for `COC(=O)[C@H]1C[C@H](S(=O)(=O)N2CCC[C@H](C(=O)N3CCC[C@@H]3C(=O)NCc3ccc(C(F)(F)F)cc3)C2)C1` ?
### Response 8.31

### Prompt Moving on to `N#CC1CN(S(=O)(=O)N2CCC[C@H](C(=O)N3[C@@H](C(=O)NCc4ccc(C(F)(F)F)nc4)C[C@H]4C[C@H]43)C2)C1`
### Response 0.8885
